Tested on: resting heart rate in the pithed rat
test: intrinsic sympathomimetic activity: increase in resting heart rate in the pithed rat
Type: in vivo
setup-conditions: maximum effect of cumulative doses of drug up to 3 mg/kg
Assign Maximum Change in Resting Heart Rate in the Pithed Rat to each entry below.

Value of Maximum Change in Resting Heart Rate in the Pithed Rat reported for the molecule CC(C)NCC(O)COc1ccc(CCOCC2CC2)cc1 (stereo not shown) [Betaxolol, reference compound] is 0

Value of Maximum Change in Resting Heart Rate in the Pithed Rat reported for the molecule CCCOCCOc1ccc(OCC(O)CNCCNC(=O)Nc2ccc3[nH]ccc3c2)c(C#N)c1 (stereo not shown) is +101

Value of Maximum Change in Resting Heart Rate in the Pithed Rat reported for the molecule CC(C)NCC(O)COc1cccc2[nH]ccc12 (stereo not shown) [Pindolol, reference compound] is +89

Value of Maximum Change in Resting Heart Rate in the Pithed Rat reported for the molecule CCCOCCOc1ccc(OCC(O)CNCCNC(=O)Cc2ccsc2)c(C#N)c1 (stereo not shown) is +66
